Origin of values: patent US10450306B2

molecular target: human FXR (NR1H4) (Homo sapiens); experiment: Human FXR (NR1H4) Assay: Gal4 promoter driven luciferase reporter transactivation in CHO cells (Indigo Bioscience kit IB00601); details: Human FXR (NR1H4) reporter assay, potency ranges
pEC50: −log10 of the molar value.
For each entry below, report its pEC50 value.

Briefly, pEC50 measured for CN(Cc1c(-c2c(Cl)cccc2Cl)noc1C1CC1)[C@H]1C[C@H]2CC[C@@H](C1)N2c1nc2ccc(C(=O)NS(=O)(=O)C3CC3)cc2s1 : 7.00 to 9.00

Please fill in: pEC50 reported for CC(C)(C)c1ccc(S(=O)(=O)NC(=O)c2ccc3nc(N4C5CCC4CC(NCc4c(-c6c(Cl)cccc6Cl)noc4C4CC4)C5)sc3c2)cc1 (stereo not drawn) [Example 284] = < 6.00

Looking up CN(C)S(=O)(=O)NC(=O)c1ccc2nc(N3C4CCC3CC(NCc3c(-c5c(Cl)cccc5Cl)noc3C3CC3)C4)oc2c1 (stereo not drawn) , I see its pEC50 listed as > 9.00

Looking up COC(=O)c1cc(F)c2nc(N3C4CCC3CC(NCc3c(-c5c(Cl)cccc5Cl)noc3C3CC3)C4)sc2c1 (stereo not drawn) , I found its pEC50 recorded as 7.00 to 9.00

pEC50 reported for this molecule O=C(O)c1ccc(N2C3CCC2CC(NCc2c(-c4c(Cl)cccc4Cl)noc2C2CC2)C3)c(F)c1 (stereo not drawn) : 7.00 to 9.00

Noted for CC(C)Oc1cc(C(=O)O)cc2sc(N3CCC(NCc4c(-c5c(Cl)cccc5Cl)noc4C4CC4)CC3)nc12 : its pEC50 reads 7.00 to 9.00

====

target: human FXR (NR1H4) (Homo sapiens); assay: Human FXR (NR1H4) Assay: Gal4 promoter driven luciferase reporter transactivation in CHO cells (Indigo Bioscience kit IB00601); conditions: Human FXR (NR1H4) reporter assay, potency ranges
Recorded Endpoint: EC50

Summary for this compound, CN(C)S(=O)(=O)NC(=O)c1ccc2nc(N3C4CCC3CC(NCc3c(-c5c(Cl)cccc5Cl)noc3C3CC3)C4)sc2c1 (stereo not drawn) [Example 283] : EC50 is > 1000 nM

EC50 reported for this compound COC(=O)c1ccc2nc(N3C4CCC3CC(NCc3c(-c5c(Cl)cccc5Cl)noc3C3CC3)C4)oc2c1 (stereo not drawn) : 100 to 1000 nM

# EC50 of COC(=O)c1cc(F)c2nc(N3C4CCC3CC(NCc3c(-c5ccccc5C(F)(F)F)noc3C3CC3)C4)sc2c1 (stereo not drawn) = 1 to 100 nM

Query CN(C)S(=O)(=O)NC(=O)c1ccc2nc(N3C4CCC3CC(NCc3c(-c5c(Cl)cccc5Cl)noc3C3CC3)C4)sc2c1 (single isomer, unassigned) [Example 225] yields EC50 of < 1 nM

EC50 recorded for this compound, COC(=O)c1cc(F)c2nc(N3CCC(NCc4c(-c5ccccc5OC(F)(F)F)noc4C4CC4)CC3)sc2c1 , is 100 to 1000 nM

Record summary for CC1(S(=O)(=O)NC(=O)c2cc(F)c3nc(N4C5CCC4CC(NCc4c(-c6ccccc6OC(F)(F)F)noc4C4CC4)C5)sc3c2)CC1 (stereo not drawn) : reported EC50 = 1 to 100 nM

====

Molecular target: UniProt Q96RI1
Sequence (Q96RI1 1-486): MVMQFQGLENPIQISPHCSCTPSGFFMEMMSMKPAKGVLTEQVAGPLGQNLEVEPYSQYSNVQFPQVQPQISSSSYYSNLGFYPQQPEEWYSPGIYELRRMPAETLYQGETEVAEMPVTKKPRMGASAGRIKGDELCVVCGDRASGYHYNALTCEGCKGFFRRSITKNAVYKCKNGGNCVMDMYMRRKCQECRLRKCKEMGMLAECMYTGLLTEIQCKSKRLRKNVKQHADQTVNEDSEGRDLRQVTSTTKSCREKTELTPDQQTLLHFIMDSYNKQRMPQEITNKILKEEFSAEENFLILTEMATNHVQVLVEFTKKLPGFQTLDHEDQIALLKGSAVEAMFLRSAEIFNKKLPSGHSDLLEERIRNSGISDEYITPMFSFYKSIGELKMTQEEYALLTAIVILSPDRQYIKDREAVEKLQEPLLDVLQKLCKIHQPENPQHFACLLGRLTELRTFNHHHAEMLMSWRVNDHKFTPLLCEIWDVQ
Test: Human FXR (NR1H4) Assay: Gal4 promoter driven luciferase reporter transactivation in CHO cells (Indigo Bioscience kit IB00601)
Conditions: Human FXR (NR1H4) reporter assay, potency ranges
Recorded Endpoint: EC50

Entry O=C(NS(=O)(=O)c1ccccc1)c1ccc2nc(N3C4CCC3CC(NCc3c(-c5c(Cl)cccc5Cl)noc3C3CC3)C4)sc2c1 (stereo not drawn) — recorded EC50 = 1 to 100 nM

Looking up O=C(NS(=O)(=O)C1CC1)c1ccc(N2C3CCC2CC(NCc2c(-c4ccccc4OC(F)(F)F)noc2C2CC2)C3)nc1 (stereo not drawn) , I found its EC50 recorded as 1 to 100 nM

In plain terms, COC(=O)c1cccc(N2CCN(Cc3c(-c4c(Cl)cccc4Cl)noc3C3CC3)CC2)c1 has a documented EC50 of > 1000 nM

// recorded EC50 for COC(=O)c1ccc2nc(N3C4CCC3CC(NCc3c(-c5c(Cl)cccc5Cl)noc3C3CC3)C4)c(Cl)nc2c1 (stereo not drawn) : 100 to 1000 nM

EC50 reported for this compound CC(C)Oc1cc(C(=O)NS(=O)(=O)C2(C)CC2)cc2sc(N3C4CCC3CC(NCc3c(-c5ccccc5C(F)(F)F)noc3C3CC3)C4)nc12 (stereo not drawn) : 1 to 100 nM

Lookup result for O=C(NS(=O)(=O)C1CC1)c1cc(C2CC2)c2nc(N3C4CCC3CC(NCc3c(-c5ccccc5C(F)(F)F)noc3C3CC3)C4)sc2c1 (stereo not drawn) ; measured EC50: < 1 nM
